Reported pKd values are given for each entry in this list.
target: purified recombinant human PSMA protein (PSMA extracellular domain, baculovirus-insect cell expression) (UniProt Q04609 44-750); experiment: SPR (Biacore); Bivalent fit
Sequence (Q04609 44-750): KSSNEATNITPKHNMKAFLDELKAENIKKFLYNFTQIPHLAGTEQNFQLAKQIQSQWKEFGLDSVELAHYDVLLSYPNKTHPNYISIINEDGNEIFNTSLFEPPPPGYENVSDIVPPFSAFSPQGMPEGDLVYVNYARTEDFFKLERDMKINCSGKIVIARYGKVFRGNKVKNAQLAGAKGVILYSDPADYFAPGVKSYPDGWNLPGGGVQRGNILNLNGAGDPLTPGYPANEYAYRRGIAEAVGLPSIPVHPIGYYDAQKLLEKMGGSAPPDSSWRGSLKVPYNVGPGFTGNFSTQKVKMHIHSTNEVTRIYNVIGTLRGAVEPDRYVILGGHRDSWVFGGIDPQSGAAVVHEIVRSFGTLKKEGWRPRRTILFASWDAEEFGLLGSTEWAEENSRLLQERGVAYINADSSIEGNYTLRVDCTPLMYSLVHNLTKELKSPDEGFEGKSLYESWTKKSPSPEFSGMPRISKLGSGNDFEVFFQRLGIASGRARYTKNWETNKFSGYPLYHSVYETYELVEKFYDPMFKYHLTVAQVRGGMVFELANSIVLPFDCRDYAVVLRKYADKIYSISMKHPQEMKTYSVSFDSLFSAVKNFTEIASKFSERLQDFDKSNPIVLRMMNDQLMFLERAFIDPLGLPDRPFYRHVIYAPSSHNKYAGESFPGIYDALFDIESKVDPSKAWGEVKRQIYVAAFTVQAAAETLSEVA
In textbook form, pKd equals minus log to base ten of the concentration in mol/L.

ScFv Fc 445 (antibody) VQLQQPGAALVRPGASVRLSCKASGYSFTYYWMNWVMQRPGQGLEWIGMIHPSDSETRLSQKFRDKATLTVDKSSSTVYMQLNSPTSDDSAVYYCARDGNFPYYALDYWGQGTSVTVSSGGGGSGGGGSGGGGSDVVLTQAPLSLPVSLGDQASISCRSSQSLEYSNGNTYLHWYLQKPGQSPELLIYTVSNRFSGVPDRFSGSGSGTDFTLKIHRVEAEDLGVYFCSQSTHVPTFGGGTKLEIKR ... 8.59
ScFv Fc 444 (antibody, V domains shown) VH: VQLQQSGPELEKPGASVKMSCKASGYSFTGYNVNWVRQNNGKSLEWIGNIDPLHGGTTYNQKFKAKATLTVDRSSSTAYLQLKNLTSEDSAVYYCARSSRFDYWGQGTTLTVSS VL: DIVMTQSHKFMSTSVGDRVNITCKASQDVGTAVAWYQQKPGQSPKLLIYWASTRHTGVPDRFTGSGSGTDFTLTISNVQSEDLADYFCHQFTSYPFTFGSGTSLEMKR ... 8.36
ScFv Fc 446 (antibody, V domains shown) VH: VKLQESGPGLVAPSQSLSITCTVSGFSLTDYGVSWIRQPPGKGLEWLGVIWSDGNTYYNSPLKSRLSINKDNSKSQVFLKMNSLQTDDSAMYYCARHKVYTMDYWGQGTSVTVSS VL: TVLTQSPAIMSASPGEKVTMTCRASSSVSSSYLHWYQQKSSASPKLWIYRTSNLASGVPARFSGSGSGTSYSLTISSLEAEDAATYYCQQYSGYPLTFGAGTKLELKR ... 5.94
anti-PSMA mouse monoclonal antibody #1377 (antibody, V domains shown) VH: VQLQQPGAALVRPGASVRLSCKASGYSFTYYWMNWVMQRPGQGLEWIGMIHPSDSETRLSQKFRDKATLTVDKSSSTVYMQLNSPTSDDSAVYYCARDGNFPYYALDYWGQGTSVTVSS VL: DVVLTQAPLSLPVSLGDQASISCRSSQSLEYSNGNTYLHWYLQKPGQSPELLIYTVSNRFSGVPDRFSGSGSGTDFTLKIHRVEAEDLGVYFCSQSTHVPTFGGGTKLEIKR ... 7.73
anti-PSMA mouse monoclonal antibody #1352 (antibody, V domains shown) VH: VKLQQSGPELEKPGASVKISCKASGYSFTGYNVNWVKQSNGKSLEWIGNIDPYHGGTTYNQKFEAKATLTVDKSSSTAYMQLKSLTSEDSAVYYCARSSRFDYWGQGTTLTVSS VL: DIVMTQSHKFMSTSVGDRVNITCKASQDVGTAVAWYQQKPGQSPKFLIYWASTRHTGVPDRFTGSGSGTDFTLTISNVQSEDLADYFCHQYTSYPFTFGSGTKLEMKR ... 8.70
anti-PSMA mouse monoclonal antibody #1207 (antibody, V domains shown) VH: VKLQQSGPGLVKPSQSLSLTCAVTGYSITSDYAWNWIRKFPGNKLEWMGYISYSGRTTYNPSLESRISITRDTSKNQFFLQLNSVTTEDTATYYCARCYYGSSSRWYGMDYWGRGTSVAVSS VL: IVLTQSPAIMSASPGVKVTMTCRASSSVDSSYLHWYQQKSGASPQVWIYSTSNLASGVPARFSGSGSGTSYSLTISSVEAEDAATYYCQQYSGYPLTFGGGTKLEIKR ... 8.09

Read the next record carefully.
# input Give the value of pKd reported for the following: anti-PSMA mouse monoclonal antibody #1366 (antibody, V domains shown) VH: VKLQESGPGLVAPSQSLSITCTVSGFSLTDYGVSWIRQPPGKGLEWLGVIWSDGNTYYNSPLKSRLSINKDNSKSQVFLKMNSLQTDDSAMYYCARHKVYTMDYWGQGTSVTVSS VL: TVLTQSPAIMSASPGEKVTMTCRASSSVSSSYLHWYQQKSSASPKLWIYRTSNLASGVPARFSGSGSGTSYSLTISSLEAEDAATYYCQQYSGYPLTFGAGTKLELKR
# output 6.53
